- Assay Protocol: Cytotoxicity assay (resazurin)
- Format: cell-based, human
- Stated Conditions: human, HEK293 cells (ATCC CRL-1573), HEK293, 20 h incubation, read-out: CC50 (concentration of 50% cytotoxicity)
- Procedure: Screening against bacteria and yeasts for antimicrobial activity and toxicity against mammalian cells was performed in duplicate (n = 2). […] Selectivity indices (SI) were calculated by dividing the CC50 value (μg/mL) by the MIC value (μg/mL) for a given bacterial or fungal strain.
Value Type: CC50 at 20 h
Report field: quantity (unit follows the number).

Recorded CC50 at 20 h of CC/C(=C(\c1ccccc1)c1ccc(OCCN(C)C)cc1)c1ccccc1 [tamoxifen, Tamoxifen, reference compound] , please. 9 µg/mL
